Reference source: patent US6413990B1

Where a name gives a salt, the structure may show the parent alone.
MEASUREMENT LABEL: melting point

| COMPOUND | MEASUREMENT LABEL | VALUE REPORTED |
| --- | --- | --- |
| CCN(CC)CCN(c1ccc2c(c1)nc(CCc1ccc(C(=N)N)cc1)n2C)S(=O)(=O)c1ccc(N)cc1 (as salt: hydrochloride) | melting point | 190 to 205 °C |

# input Entry CCN(CC)CCN(c1ccc2c(c1)nc(CCc1ccc(C(=N)N)cc1)n2C)S(=O)(=O)c1ccc(OC)cc1 (as salt: hydrochloride) : reported melting point = ?
# output 190 to 200 °C

# input // query melting point value for entry CCN(CC)CCN(c1ccc2c(c1)nc(CCc1ccc(C(=N)N)cc1)n2C)S(=O)(=O)c1ccc(C(=O)O)cc1 (as salt: fumarate)
# output 200 to 204 °C
